- target-or-system: Epidermal growth factor receptor (Homo sapiens)
- Sequence (P00533 whole entry, the tested form may be a part): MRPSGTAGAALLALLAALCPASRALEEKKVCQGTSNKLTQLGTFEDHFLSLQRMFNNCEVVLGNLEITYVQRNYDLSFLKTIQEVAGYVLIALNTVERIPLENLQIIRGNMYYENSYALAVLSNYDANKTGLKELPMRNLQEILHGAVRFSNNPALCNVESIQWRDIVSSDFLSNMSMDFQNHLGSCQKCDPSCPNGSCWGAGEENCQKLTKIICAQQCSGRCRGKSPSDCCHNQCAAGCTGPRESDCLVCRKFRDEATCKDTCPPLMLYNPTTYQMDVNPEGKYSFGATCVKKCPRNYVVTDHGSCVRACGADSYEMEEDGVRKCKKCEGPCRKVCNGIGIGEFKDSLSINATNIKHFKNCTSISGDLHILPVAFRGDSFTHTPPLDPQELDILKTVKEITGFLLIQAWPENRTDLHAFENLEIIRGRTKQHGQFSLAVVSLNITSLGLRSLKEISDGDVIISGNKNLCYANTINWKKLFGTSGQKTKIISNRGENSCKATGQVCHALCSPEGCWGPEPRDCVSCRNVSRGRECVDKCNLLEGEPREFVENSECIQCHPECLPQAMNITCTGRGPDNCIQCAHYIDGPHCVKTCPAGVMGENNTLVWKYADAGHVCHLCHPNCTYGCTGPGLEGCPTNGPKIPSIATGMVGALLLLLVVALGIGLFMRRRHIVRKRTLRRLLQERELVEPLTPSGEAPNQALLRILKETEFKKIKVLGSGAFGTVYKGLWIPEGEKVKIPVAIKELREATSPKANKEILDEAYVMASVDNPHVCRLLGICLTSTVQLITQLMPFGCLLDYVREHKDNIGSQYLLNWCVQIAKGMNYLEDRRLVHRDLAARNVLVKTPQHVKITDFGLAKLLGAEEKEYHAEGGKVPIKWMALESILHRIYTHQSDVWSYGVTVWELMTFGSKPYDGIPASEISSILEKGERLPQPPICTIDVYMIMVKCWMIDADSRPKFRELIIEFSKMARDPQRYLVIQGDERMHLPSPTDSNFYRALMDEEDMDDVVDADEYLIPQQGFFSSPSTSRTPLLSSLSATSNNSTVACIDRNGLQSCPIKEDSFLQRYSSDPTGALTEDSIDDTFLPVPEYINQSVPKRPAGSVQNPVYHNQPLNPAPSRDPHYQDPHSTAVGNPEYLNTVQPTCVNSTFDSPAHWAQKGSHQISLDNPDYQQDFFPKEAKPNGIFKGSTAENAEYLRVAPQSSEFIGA
- procedure-details: Inhibition of autophosphorylation of His6-tagged EGFR cytoplasmic domain (unknown origin) expressed in Sf9 cells by DELFIA time resolved fluorometry
Assign IC50 to each entry below.
Give bare numbers, in µM.

Ask: Given the compound CCOc1ccc(NC(=O)/C=C/c2ccccc2)cc1 , what is its reported IC50?
Result: 10.2

Ask: Given the compound CCOc1ccccc1NC(=O)/C=C/c1ccccc1 , what is its reported IC50?
Result: 9.35

Ask: Given the compound O=C(/C=C/c1ccccc1)Nc1ccc(F)cc1F , what is its reported IC50?
Result: 11.7

Below are some compounds; for each one, tell me its IC50.
1. CC(C)c1ccc(NC(=O)/C=C/c2ccccc2)cc1
2. O=C(/C=C/c1ccccc1)Nc1ccc(Cl)cc1Cl
3. Cc1cccc(NC(=O)/C=C/c2ccccc2)c1 [N-M-TOLYLCINNAMAMIDE]
4. CCCCCCCCCCCCNC(=O)/C=C/c1ccccc1 [N-DODECYLCINNAMAMIDE]
5. Cc1ccccc1NC(=O)/C=C/c1ccccc1 [N-O-TOLYLCINNAMAMIDE]
6. O=C(/C=C/c1ccccc1)Nc1cc(F)cc(F)c1
7. O=C(/C=C/c1ccccc1)Nc1cc(F)c(F)c(F)c1
8. CC(C)(C)NC(=O)/C=C/c1ccccc1 [N-TERT-BUTYLCINNAMAMIDE]

Result:
[14.6, 16.2, 19.7, 38.5, 12.3, 13.2, 12.9, 29.8]

Below are some compounds; for each one, tell me its IC50.
1. O=C(/C=C/c1ccccc1)Nc1ccccc1Br
2. O=C(/C=C/c1ccccc1)Nc1cc(Cl)cc(Cl)c1
3. Cc1ccc(NC(=O)/C=C/c2ccccc2)cc1 [N-P-TOLYLCINNAMAMIDE]

Result:
1. 15.7
2. 13.9
3. 12.7
